Target: SCRIB_2, Q14160
Sequence (Q14160 857-960): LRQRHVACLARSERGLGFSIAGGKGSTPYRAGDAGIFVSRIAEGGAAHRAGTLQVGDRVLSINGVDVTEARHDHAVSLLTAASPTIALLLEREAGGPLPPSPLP
Assay: holdup assay
Set-up: key: below the threshold = too weak to quantify, mostly under pKd 3.1 to 4
Details: plain residues with an end cap or a label only (N-terminal biotin on a linker: ado-ado)
ASSAY METRIC: pKd

HSGYRLNDYV [CLDN14, O95500]
below the threshold
GNSVLKSTQF [SLC22A12, Q96S37]
below the threshold
DTTVPESEDL [MYOZ2, Q9NPC6]
below the threshold
TACCHSETVV [TGFA, P01135]
4.1
SGSLKLMTTV [DACT1, Q9NYF0]
3.69

Hi team, please reply with pKd for each item in this list.
1. PLSPEQPTKL [TRIM50, Q86XT4]
2. PDGQCTVTEV [RNF146, Q9NTX7]
3. QKNRKAQEDL [CES3, Q6UWW8]

Given back:
1: below the threshold; 2: 4.28; 3: below the threshold

Reference source: paper PMC9482650
